These entries and their values trace back to ChEMBL document CHEMBL3098056.

target_of_assay: Interstitial collagenase (Homo sapiens)
Sequence (P03956 whole entry): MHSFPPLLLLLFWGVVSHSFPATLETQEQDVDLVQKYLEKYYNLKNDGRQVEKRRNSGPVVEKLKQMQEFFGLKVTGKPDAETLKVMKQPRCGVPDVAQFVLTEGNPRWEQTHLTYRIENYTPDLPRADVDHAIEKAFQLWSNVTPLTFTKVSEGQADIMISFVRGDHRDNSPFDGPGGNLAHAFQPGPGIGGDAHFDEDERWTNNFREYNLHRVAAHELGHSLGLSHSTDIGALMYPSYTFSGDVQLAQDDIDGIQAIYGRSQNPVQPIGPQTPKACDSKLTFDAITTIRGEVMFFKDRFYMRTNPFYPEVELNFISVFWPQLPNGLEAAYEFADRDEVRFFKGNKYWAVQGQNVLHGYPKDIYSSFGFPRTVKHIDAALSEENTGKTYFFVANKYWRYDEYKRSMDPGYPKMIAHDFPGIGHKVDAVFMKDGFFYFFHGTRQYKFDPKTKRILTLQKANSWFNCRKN
measured_quantity: IC50

>>> print(df.to_string())
                                smiles_data    result
0    COc1ccccc1CCC(=O)Nc1ccc2nc(C)cc(N)c2c1  > 100 µM
1  Cc1cc(N)c2cc(NC(=O)COc3ccc(OCc4ccccc4)cc3)ccc2n1  > 100 µM
2  Cc1cc(N)c2cc(NC(=O)c3cccc(-c4ccc5ncccc5c4)c3)ccc2n1  > 100 µM
3  Cc1cc(N)c2cc(NC(=O)c3ccc(-c4ccc5ncccc5c4)cc3)ccc2n1  > 100 µM
4  Cc1cc(N)c2cc(NC(=O)c3ccc(-c4cncc5ccccc45)cc3)ccc2n1  > 100 µM
5  Cc1cc(N)c2cc(NC(=O)c3cccc(-c4cccc5cccnc45)c3)ccc2n1  > 100 µM
6  Cc1cc(N)c2cc(NC(=O)c3cccc(-c4cnc5ccccc5c4)c3)ccc2n1  > 100 µM
7  COc1ccccc1/C=C/C(=O)Nc1ccc2nc(C)cc(N)c2c1  > 100 µM
8  Cc1cc(N)c2cc(NC(=O)c3ccc(-c4cccc5cccnc45)cc3)ccc2n1  > 100 µM
9  Cc1cc(N)c2cc(NC(=O)Nc3ccc(C(=O)c4ccccc4)cc3)ccc2n1  > 100 µM

====

Here, each record is paired with measured pKi data.
target_of_assay: Lethal factor (Bacillus anthracis, UniProt P15917)
assay_procedure: Non-competitive inhibition of Bacillus anthracis lethal factor assessed as MCA-KKVYPYPME[dnp]K amide cleavage after 30 mins by Eadie-Hofstee plot analysis
pKi: −log10 of the molar value.
measured_quantity: pKi

>>> df
                                smiles_data  measured_quantity  numeric_result
0    COc1ccccc1CCC(=O)Nc1ccc2nc(C)cc(N)c2c1                pKi            5.54
1  Cc1cc(N)c2cc(NC(=O)c3ccc(-c4ccc5ncccc5c4)cc3)ccc2n1                pKi            5.94

====

Here, each record is paired with measured IC50 data.
target_of_assay: Lethal factor (Bacillus anthracis)
Sequence (P15917 whole entry): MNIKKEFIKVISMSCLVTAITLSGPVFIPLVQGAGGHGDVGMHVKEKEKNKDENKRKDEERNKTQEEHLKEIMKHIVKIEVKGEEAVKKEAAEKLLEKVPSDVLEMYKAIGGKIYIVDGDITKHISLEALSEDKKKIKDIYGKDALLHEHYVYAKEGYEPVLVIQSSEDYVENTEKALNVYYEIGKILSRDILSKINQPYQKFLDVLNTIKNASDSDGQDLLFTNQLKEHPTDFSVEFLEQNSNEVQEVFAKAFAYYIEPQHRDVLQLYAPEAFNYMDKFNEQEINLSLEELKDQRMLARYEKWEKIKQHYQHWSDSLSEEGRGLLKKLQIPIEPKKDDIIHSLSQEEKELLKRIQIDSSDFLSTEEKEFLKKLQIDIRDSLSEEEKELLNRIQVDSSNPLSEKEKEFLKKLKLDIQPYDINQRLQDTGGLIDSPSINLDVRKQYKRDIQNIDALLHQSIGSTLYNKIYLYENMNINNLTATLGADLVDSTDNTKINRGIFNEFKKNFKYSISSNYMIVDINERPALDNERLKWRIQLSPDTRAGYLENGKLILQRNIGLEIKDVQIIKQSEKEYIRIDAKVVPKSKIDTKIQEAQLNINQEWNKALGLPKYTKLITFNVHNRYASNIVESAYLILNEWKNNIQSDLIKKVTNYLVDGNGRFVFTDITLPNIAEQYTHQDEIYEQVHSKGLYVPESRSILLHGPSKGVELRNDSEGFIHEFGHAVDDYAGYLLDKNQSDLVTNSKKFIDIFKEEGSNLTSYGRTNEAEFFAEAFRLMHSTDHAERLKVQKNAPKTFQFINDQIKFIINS
assay_procedure: Non-competitive inhibition of Bacillus anthracis lethal factor using 50 uM MCA-KKVYPYPME[dnp]K amide as substrate after 30 mins by Eadie-Hofstee plot analysis
measured_quantity: IC50 (µM)

>>> print(df.to_string())
                                smiles_data  numeric_result
0  Cc1cc(N)c2cc(NC(=O)c3ccc(-c4ccc5ncccc5c4)cc3)ccc2n1            1.16
1    COc1ccccc1CCC(=O)Nc1ccc2nc(C)cc(N)c2c1             1.1
